GI50 by entry:
System: SNB-75
Assay: NCI tumour cell line growth inhibition, 48 h
Active and inactive are the calls of the source. Cut-off read from the data, not from the text of the source: active = GI50 up to about 1.1 µM and inactive = higher.

CCN(CC)CCC(=O)NC1c2ccccc2Oc2c(C)cccc21 (stereo unspecified); > 100 µM (inactive)

Query string: GI50 lookup needed for CCN(CC)C(=S)SC1CCOP(=O)(N(CCCl)CCCl)N1C (stereo unspecified) , thanks.
Result string: > 55.1 µM (inactive)

Query string: `O=C1OCC/C1=N/O` ?
Result string: > 100 µM (inactive)

Query string: Again, but for OCC1OC(Oc2cc(O)cc(/C=C\c3ccc(O)cc3)c2)C(O)C(O)C1O (stereo unspecified)
Result string: > 100 µM (inactive)

Query string: Another compound to check: `O=S(=O)(c1cnccc1N1CCN(CCO)CC1)N1CCCC1`
Result string: > 100 µM (inactive)

Query string: Further, for `O=C(CCN1CCCCC1)C(=Cc1ccccc1)C(=O)CCN1CCCCC1` ?
Result string: > 100 µM (inactive)

Query string: Another compound to check: `Nc1ccccc1SCc1csc(-c2ccc(Cl)cc2)n1`
Result string: 46.7 µM (inactive)

Query string: // query: NS(=O)(=O)c1cc2c(cc1Cl)NCNS2(=O)=O [HYDROCHLOROTHIAZIDE]
Result string: > 100 µM (inactive)

Query string: Can you handle O=C(CC1C(=O)Nc2ccccc2S1(=O)=O)Nc1cc(Cl)ccc1Cl (stereo unspecified) next?
Result string: 14.6 µM (inactive)

Query string: Further, for `COc1ccc(/C=C/C(=O)c2cccc(C(=O)/C=C/c3ccc(OC)c(OC)c3)n2)cc1OC` ?
Result string: > 100 µM (inactive)

Query string: Would you mind doing COc1ccc(NC(C(N)=O)c2cc3cc(Br)ccc3nc2Cl)cc1 (stereo unspecified) as well?
Result string: 81.5 µM (inactive)
